Listing: melting point of selected compounds

Worked examples, 5 compounds total:
1. Cc1nc(N(C)C)n2ncc(-c3ccncc3)c2n1
195 to 197 °C
2. O=C1NC(=O)[C@@]2(C[C@@H](C(=O)NCCN3CCN(CC=Cc4ccccc4)CC3)Oc3ccc(F)cc32)N1
133 to 135 °C
3. O=C1OC(CO)CN1c1ccc2ccccc2c1 (stereo not given)
174 °C
4. CCCCc1nc(N)c(C#N)[nH]1
115 to 116 °C
5. CC(C)CC(NC(=O)c1cc(F)ccc1SSc1ccc(F)cc1C(=O)NC(CC(C)C)C(=O)O)C(=O)O (stereo not given)
246 to 247 °C

Which value of melting point has been reported for CCNC(=O)N1C[C@@H](c2c[nH]c3ccccc23)[C@H](c2cn3c4c(cccc24)CCC3)C1 in the records?
278 to 279 °C

Param item = COc1ccc(P2(=O)c3ccccc3CN2c2ccccc2)cc1OC (stereo not given) ; retrieve measured melting point.
84 to 86 °C

// lookup melting point for O=C(O)c1cnc(Cl)nc1-c1ccccc1
105 to 110 °C

Quick one: melting point for Oc1cc2c(cc1C=CCc1ccccc1)OCO2 ?
83 °C

Which melting point is reported for this compound? CCOC(=O)c1[nH]c2cc(Cl)cc(Cl)c2c1I
218 to 220 °C

###

Quantity measured: melting point

Use these answered entries as a reference point.
1. O=c1c2cc(F)c(F)cc2n(-c2cccc(F)c2)c(=O)n1OCc1ccccc1
179 to 181 °C
2. COC(=O)c1cc2ccccc2o1
53.8 to 54 °C
3. CC(=O)Nc1nc2c(ncn2CCC(CO)CO)c(=O)[nH]1
143 to 146 °C

Fill in: melting point of CCCCc1nc2cc(-c3ccccc3)cc(C(=O)OC)c2n1Cc1ccccc1Cl is ___
103 to 105 °C

Could you share which melting point value was measured for CC(C)(C)OC(=O)N1CCN(C(=O)SCc2ccc(OCc3ccc(F)cc3)cc2)CC1 ?
123 to 124 °C

Fill blank: measured melting point of the molecule COC(=O)c1ccc([C@H](C)NC(C)=O)cc1 is ____.
125 to 127 °C

Any idea what melting point was measured for COC(=O)C(OCc1csc(-c2ccc(F)cc2)n1)C(=O)c1ccccc1 (centres undefined) ?
86 to 89 °C

Data request, read-out melting point, for O=S(c1[nH]c(-c2ccc(Cl)cc2)c(S(=O)(=O)C(F)(F)F)c1Br)C(F)(F)F (centres undefined)
120 to 170 °C

What melting point value was documented for this molecule, CCC(=O)c1cc(-c2cccc(OCc3ccc(COC(=O)c4ccccc4)c(COC(=O)c4ccccc4)c3)c2)cs1 ?
117 °C

###

A collection of molecules and their measured melting point

Reference set (8 entries):
1) COc1cc(OCc2ccccn2)ccc1/C=C/c1cc(/C=C/c2ccc3nccnc3c2)[nH]n1
205 to 213 °C
2) CN(Cc1ccccc1)c1cc(C(=O)O)ccc1C(N)C(=O)O (centres undefined)
193 °C
3) CCOC(=O)C1=C(CS(=O)(=O)c2ccccc2)Nc2ccnc(OC(C)C)c2C1c1ccccc1C(F)(F)F (centres undefined)
177 to 182 °C
4) COc1ccc2cc(S(N)(=O)=O)oc2c1
148 to 149 °C
5) Cn1c(C(F)(F)F)cc(=O)n(-c2ccc3snc(C(=O)O)c3c2)c1=O
149 to 152 °C
6) CCN(CC)c1nc(-c2ccncc2)nc2sc(C#N)c(C)c12
169 to 171 °C
7) c1cc2c(c(-c3nc4ncccc4o3)c1)CCCC2
87 to 90 °C
8) COc1ccc(C#N)c(F)c1OC(C)=O
90 to 91 °C

Please give the measured melting point for this molecule: CCCCCCCc1cnc(-c2ccc(OCC(F)CCCCCC)c(F)c2F)nc1 (centres undefined)
56 °C

Which value of melting point has been reported for CCn1cc(C(=O)O)c(=O)c2cc(F)c(N3CCN(S(=O)(=O)c4ccc(OC)cc4)CC3)c(F)c21 in the records?
252 to 253 °C

Consider the molecule shown here: CCc1nc(C2CC2)c(C(=O)O)n1Cc1ccc2oc(-c3ccccc3-c3nnn[nH]3)c(Br)c2c1 What is its recorded melting point?
198 °C
